Origin of values: ChEMBL document CHEMBL2203130

Species: Homo sapiens
Test: Selectivity index, ratio of IC50 for human recombinant MAOA to IC50 for human recombinant MAOB
Ratio IC50 strictly under 30 means 1 (yes); at 30 or over means 0 (no).

chemical_string: COc1ccc(CSc2ccc(C#N)c(C#N)c2)cc1
qualitative_label: 0 (no)

chemical_string: N#Cc1ccc(SC2CCCCC2)cc1
qualitative_label: 1 (yes)

chemical_string: N#Cc1ccc(SCc2ccc(F)cc2)cc1C#N
qualitative_label: 0 (no)

chemical_string: N#Cc1ccc(SCc2ccc(F)cc2)cc1
qualitative_label: 0 (no)

chemical_string: N#Cc1ccc(OCc2ccc(Br)cc2)cc1C#N
qualitative_label: 0 (no)

chemical_string: COc1ccc(CSc2ccc(C#N)cc2)cc1
qualitative_label: 1 (yes)

chemical_string: N#Cc1ccc(OCc2ccccc2)cc1
qualitative_label: 0 (no)

chemical_string: N#Cc1ccc(SCc2ccc(Cl)cc2)cc1
qualitative_label: 0 (no)

chemical_string: N#Cc1ccc(Sc2ccc(Br)cc2)cc1C#N
qualitative_label: 0 (no)

chemical_string: N#Cc1ccc(Sc2ccc(Br)cc2)cc1
qualitative_label: 1 (yes)

chemical_string: N#Cc1ccc(SC2CCCCC2)cc1C#N
qualitative_label: 1 (yes)

chemical_string: N#Cc1ccc(Sc2ccccc2)cc1
qualitative_label: 1 (yes)

chemical_string: CC(C)CCSc1ccc(C#N)c(C#N)c1
qualitative_label: 1 (yes)

chemical_string: N#Cc1ccc(Sc2ccc(Cl)cc2)cc1C#N
qualitative_label: 0 (no)

* * *

Biological target: Amine oxidase [flavin-containing] A (Homo sapiens, UniProt P21397)
Sequence (P21397 whole entry): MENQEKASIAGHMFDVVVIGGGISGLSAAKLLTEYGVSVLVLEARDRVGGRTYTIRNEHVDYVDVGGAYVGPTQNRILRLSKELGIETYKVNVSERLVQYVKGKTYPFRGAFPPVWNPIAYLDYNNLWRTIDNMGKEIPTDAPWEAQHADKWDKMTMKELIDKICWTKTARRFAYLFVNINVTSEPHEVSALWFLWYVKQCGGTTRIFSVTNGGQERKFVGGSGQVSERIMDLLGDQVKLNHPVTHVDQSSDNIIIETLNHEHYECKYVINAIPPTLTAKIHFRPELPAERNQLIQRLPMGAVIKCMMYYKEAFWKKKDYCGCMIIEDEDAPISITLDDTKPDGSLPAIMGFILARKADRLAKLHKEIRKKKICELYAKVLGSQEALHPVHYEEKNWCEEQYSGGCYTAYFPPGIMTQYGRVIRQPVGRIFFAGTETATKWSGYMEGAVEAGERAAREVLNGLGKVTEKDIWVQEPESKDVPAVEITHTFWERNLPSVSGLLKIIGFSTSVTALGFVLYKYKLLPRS
Assay: Inhibition of human recombinant MAOA expressed in insect cell microsomes using kynuramine as substrate after 20 mins by fluorescence spectrophotometric analysis
measured_attribute: log10 IC50 (log10 of the value in µM)

chemical_string: N#Cc1ccc(SCCc2ccccc2)cc1C#N
measured_attribute: log10 IC50
reported: 0.86
//
chemical_string: COc1ccc(CSc2ccc(C#N)c(C#N)c2)cc1
measured_attribute: log10 IC50
reported: 2.11
//
chemical_string: N#Cc1ccc(Sc2ccc(Br)cc2)cc1C#N
measured_attribute: log10 IC50
reported: 1.28
//
chemical_string: N#Cc1ccc(SCc2ccccc2)cc1
measured_attribute: log10 IC50
reported: 1.63
//
chemical_string: N#Cc1ccc(SCc2ccc(Cl)cc2)cc1
measured_attribute: log10 IC50
reported: 1.31
//
chemical_string: N#Cc1ccc(SCc2ccccc2)cc1C#N
measured_attribute: log10 IC50
reported: 0.96
//
chemical_string: N#Cc1ccc(Sc2ccccc2)cc1
measured_attribute: log10 IC50
reported: 1.57
//
chemical_string: N#Cc1ccc(SCc2ccc(F)cc2)cc1
measured_attribute: log10 IC50
reported: 1.74
//
chemical_string: N#Cc1ccc(SCc2ccc(Cl)cc2)cc1C#N
measured_attribute: log10 IC50
reported: -0.21
//
chemical_string: COc1ccc(CSc2ccc(C#N)cc2)cc1
measured_attribute: log10 IC50
reported: 0.75
//
chemical_string: N#Cc1ccc(SC2CCCC2)cc1C#N
measured_attribute: log10 IC50
reported: 0.44
//
chemical_string: N#Cc1ccc(Sc2ccc(Br)cc2)cc1
measured_attribute: log10 IC50
reported: 0.93
//
chemical_string: N#Cc1ccc(SCc2ccc(Br)cc2)cc1
measured_attribute: log10 IC50
reported: 2.11
//
chemical_string: N#Cc1ccc(SC2CCCCC2)cc1
measured_attribute: log10 IC50
reported: 0.99
//
chemical_string: N#Cc1ccc(Sc2ccc(Cl)cc2)cc1C#N
measured_attribute: log10 IC50
reported: 1.05
//
chemical_string: N#Cc1ccc(SCc2ccc(Br)cc2)cc1C#N
measured_attribute: log10 IC50
reported: 2.34
//
chemical_string: N#Cc1ccc(Sc2ccccc2)cc1C#N
measured_attribute: log10 IC50
reported: 0.55
//
chemical_string: N#Cc1ccc(SCCc2ccccc2)cc1
measured_attribute: log10 IC50
reported: 1.73
//
chemical_string: CC(C)CCSc1ccc(C#N)c(C#N)c1
measured_attribute: log10 IC50
reported: 0.16
//
chemical_string: N#Cc1ccc(Sc2ccc(Cl)cc2)cc1
measured_attribute: log10 IC50
reported: 1.26
//
chemical_string: N#Cc1ccc(SCc2ccc(F)cc2)cc1C#N
measured_attribute: log10 IC50
reported: 0.32
//
chemical_string: N#Cc1ccc(SC2CCCCC2)cc1C#N
measured_attribute: log10 IC50
reported: 0.78
